Target: T1, extracellular domain (ECD) of recombinant human Sortilin with a C-terminal HIS tag (ECD-huSortilin-HIS) (human, UniProt Q99523 78-755)
T1 construct: Bought (R&D Systems); also called human sortilin-ECD; not shown: C-terminal HIS tag
T1 sequence: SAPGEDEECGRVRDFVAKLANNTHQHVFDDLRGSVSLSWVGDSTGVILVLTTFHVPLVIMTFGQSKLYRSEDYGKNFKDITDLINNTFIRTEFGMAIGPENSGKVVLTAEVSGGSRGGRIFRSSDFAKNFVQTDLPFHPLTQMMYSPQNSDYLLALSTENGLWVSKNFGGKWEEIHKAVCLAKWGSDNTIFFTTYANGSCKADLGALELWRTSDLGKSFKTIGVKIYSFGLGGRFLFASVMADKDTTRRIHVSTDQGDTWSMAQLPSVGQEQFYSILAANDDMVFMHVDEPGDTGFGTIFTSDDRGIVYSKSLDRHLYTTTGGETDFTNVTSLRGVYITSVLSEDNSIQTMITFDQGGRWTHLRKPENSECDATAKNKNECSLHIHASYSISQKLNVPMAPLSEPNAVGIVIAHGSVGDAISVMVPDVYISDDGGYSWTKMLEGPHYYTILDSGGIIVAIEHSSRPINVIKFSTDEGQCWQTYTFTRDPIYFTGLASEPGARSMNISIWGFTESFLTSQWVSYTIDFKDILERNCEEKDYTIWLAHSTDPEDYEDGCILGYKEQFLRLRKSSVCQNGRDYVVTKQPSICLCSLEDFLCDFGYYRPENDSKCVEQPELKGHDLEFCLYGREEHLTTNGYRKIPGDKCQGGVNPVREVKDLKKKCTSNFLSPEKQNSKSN
Experiment: ELISA, ECD-huSortilin-HIS coated at 1 ug/mL, goat anti-human IgG-HRP, chemiluminescence
Catalogue of EC50 values
Could you give me the number in µg/mL? Just the number is fine.

Q: Return EC50 for the following binder: humanized 8H24 hu8H24VHv1/hu8H24VLv1 (antibody, V domains shown, Human IgG; also called 8H24H1L1) VH: QAQLVQSGAEVKKPGSSVKVSCKASGYTFTSYSMHWVRQAPGQGLEWIGAIYPGNDATSYNQKFKGRATLTVDKSTSTAYMELSSLRSEDTAVYFCAREGYYGSSFEAWFASWGQGTTVTVSS VL: DVVMTQTPLSLPVTPGEPASISCRSSQSIVHSNGNTYLEWYLQKPGQSPQLLIYKVSNRFSGVPDRFSGSGSGTDFTLKISRVEAEDVGVYYCFQGSHVLPTFGGGTKVEIK
A: 0.14

Q: Indicate the recorded EC50 value for this binder: chimeric 11M14 (antibody, human IgG1, kappa, L234A L235A, V domains shown) VH: EVQLVESGGDLVKPGGSLKLSCAASGFTFNIYGMSWVRQTPDKRLEWVATISSGGIYTYYPDILKGRFTISRDNAKNTLYLQMSSLKSEDTAMYYCARHPGGAMDYWGQGTSVTVSS VL: DIQMTQSPASLSVSVGETVTITCRVSENIYSNLAWYQQKQGKSPHLLVYAATNLADGVPSRFSGSGSGTQYSLKINSLQSEDFGSYYCQHFWGTPPWTFGGGTKLEIKR
A: 0.06

Q: Give EC50 for humanized 11M14 hu11M14VHv3b/hu11M14VLv3b (antibody, V domains shown, Human IgG; also called 11M14H3bL3b) VH: EVQLVESGGGLVQPGGSLRLSCAASGFTFNIYGMSWVRQAPGKGLEWVATISSGGIYTYYPDILKGRFTISRDNAKNSLYGQMNSLRAEDTAVYYCARHPGGAMDYWGQGTLVTVSS VL: DIQMTQSPSSLSASVGDRVTITCRVSENIYSNLAWYQQKPGKSPKLLVYAATNGADGVPSRFSGSGSGTDYTLTISSLQPEDFATYYCQHFWGTPPWTFGQGTKLEIK
A: 0.23
